Provide the recorded activity at 100 µM for the entries that follow.
Tested on: M. mycetomatis genome strain MM55
PROTOCOL: CLSI M38-A2 based in vitro susceptibility screening (XTT or resazurin), growth at fixed concentration
Format: cell-based, Madurella mycetomatis
MEASUREMENT_CONTEXT: Madurella mycetomatis, 100 uM, mean; read-out: Percentage survival at 100um, 100 uM mean

Guide cases for activity at 100 µM, answers given:
COMPOUND | TARGET_UNDER_TEST | METRIC | MEASURED_VALUE
O=C(Nc1cccc(C2=NCCN2)c1)c1ccc(-c2ccc(C(=O)Nc3cccc(C4=NCCN4)c3)cc2)cc1 [MMV1580853] | M. mycetomatis genome strain MM55 | activity at 100 µM | 55.8%
COc1cc(NC(=O)CN2C(=O)NC(c3ccccc3)(c3ccccc3)C2=O)cc(OC)c1 [MMV1578572] | M. mycetomatis genome strain MM55 | activity at 100 µM | 79.3%

Can you give me activity at 100 µM for all of these, one by one?
1. Cc1nc(Nc2ccc(F)cc2)nc(N2CCc3ccccc3C2C)c1C (stereo not shown) [MMV030787]
2. Cc1ccc(Oc2ccccc2-c2csc(NC3=NCCCN3)n2)c(C)c1 [MMV1634493]

Response line:
["67.5%", "5.01%"]

###

So I've got a bunch of compounds here, and I need their activity at 100 µM values.
System: M. mycetomatis genome strain MM55
PROTOCOL: CLSI M38-A2 based in vitro susceptibility screening (XTT or resazurin), growth at fixed concentration
Assay type: cell-based, Madurella mycetomatis
MEASUREMENT_CONTEXT: Madurella mycetomatis, 100 uM, replicate 3; read-out: Percentage survival at 100um, 100 uM A (third replicate column)
One number for each entry, in %.

COMPOUND | activity at 100 µM [%]
NC(=O)c1[nH]c2ccc(S(N)(=O)=O)cc2c1-c1ccccc1 [MMV1581556] | 64.9
O=c1nc(N2CCN(CC3CCCCC3)CC2)sc2c([N+](=O)[O-])cc(C(F)(F)F)cc12 [MMV1578885] | 84.8

Below is a list of compounds. For each, state its recorded activity at 100 µM.
1. COc1nc2ccc(Br)cc2cc1[C@@H](c1ccccc1)[C@@](O)(CCN(C)C)c1cccc2ccccc12 [MMV689758]
2. CCN(CC)CCCC(C)Nc1ccnc2cc(Cl)ccc12 (centres unmarked) [MMV000008]
3. CC(C)Oc1ccc(-c2nc(-c3cccc4c3CC[C@@H]4NCCO)no2)cc1C#N [MMV1580492]
4. Nc1cc(-c2nc3ccccc3[nH]2)n[nH]c1=O [MMV975972]
5. CC(Cc1ccccc1)C(=O)Nc1ccc(Cl)cc1C(=O)O (centres unmarked) [MMV1579781]
6. CCNC(=O)Nc1cn2c(-c3ncc(CC)cn3)cc(-c3cccnc3)cc2n1 [MMV1782403]
7. COc1ccc(NC(=O)c2cc3ccccn3n2)cc1 [MMV374187]
8. O=C(O)c1sccc1S(=O)(=O)n1ccc2cc(Br)ccc21 [MMV1580855]

Response line:
[97.2, 79.8, 12, 91.4, 88.1, 96.3, 84.9, 79.1]

###

System: M. mycetomatis genome strain MM55
PROTOCOL: CLSI M38-A2 based in vitro susceptibility screening (XTT or resazurin), growth at fixed concentration
Assay type: cell-based, Madurella mycetomatis
MEASUREMENT_CONTEXT: Madurella mycetomatis, 25 uM, mean of three replicates; read-out: Percentage survival at 25um, 25 uM mean
METRIC: activity at 25 µM (%)
Answers are plain numbers, in %.

MOLECULE | TARGET_UNDER_TEST | activity at 25 µM (%)
Cc1ccc(C)c(OCCCCCCN2C[C@H](O)[C@@H](O)[C@H](O)[C@H]2CO)c1 | M. mycetomatis genome strain MM55 | 82.7
CCc1ccccc1OCCN1CCCCCC1 | M. mycetomatis genome strain MM55 | 60.1
CCC(C)NCC(O)Cn1c2ccc(Cl)cc2c2cc(Cl)ccc21 (stereo not shown) | M. mycetomatis genome strain MM55 | 7.02

API: the following record is the query input.
Prompt line: For Oc1c(C(Nc2ccccn2)c2ccccc2)ccc2cccnc12 (stereo not shown) , what is its reported activity at 25 µM?
Response line: 15.4

###

Could you please report measured activity at 25 µM for the items listed next?
Tested on: M. mycetomatis genome strain MM55
PROTOCOL: CLSI M38-A2 based in vitro susceptibility screening (XTT or resazurin), growth at fixed concentration
Assay type: cell-based, Madurella mycetomatis
MEASUREMENT_CONTEXT: Madurella mycetomatis, 25 uM, replicate C, MM55; read-out: Percentage survival at 25um, 25 uM C
Numbers only, in %.

MOLECULE | MEASURED_VALUE
CC(C)C(=O)N[C@H]1[C@H]([C@H](O)[C@H](O)CO)OC(C(=O)O)=C[C@@H]1N=[N+]=[N-] | 82.3

For each of the molecules below, note its activity at 25 µM.
1. CC(N)C12CC3CC(CC(C3)C1)C2 (centres unmarked)
2. Cc1cc(CCOc2c(C)cc(-c3nnn(C)n3)cc2C)on1
3. COCCn1cnc2c(=O)[nH]c(Nc3ccccc3)nc21
4. O=C(O)COc1cccc2c1CC[C@](O)(COC(=O)N(c1ccccc1)c1ccccc1)C2

Response line:
[96.9, 52.4, 72.6, 79.5]

###

Assignment: determine reported activity at 25 µM for the given compounds.
Test system: M. mycetomatis genome strain MM55
PROTOCOL: CLSI M38-A2 based in vitro susceptibility screening (XTT or resazurin), growth at fixed concentration
Type: cell-based, Madurella mycetomatis
MEASUREMENT_CONTEXT: Madurella mycetomatis, 25 uM, replicate A, M. mycetomatis MM55; read-out: Percentage survival at 25um, 25 um A
Answers are plain numbers, in %.

Recorded activity at 25 µM, per entry:
COMPOUND | UNIT_TEXT | MEASURED_VALUE
CC(C)(C)c1cc(CCC(=O)N2CCC2)cc(C(C)(C)C)c1O | % | 91.6
CSC[C@H]1CN(Cc2c[nH]c3c(N)ncnc23)C[C@@H]1O | % | 86.7
COC(=O)Nc1nc2ccccc2[nH]1 | % | 1.64
Nc1nnnn1CCOc1c2[nH]c3ccc(Cl)cc3c2cc2c1[nH]c1ccc(Cl)cc12 | % | 1.67
COc1cc(Cc2cnc(N)nc2N)cc(OC)c1OC | % | 93.1
O=c1cc(OCc2ccccc2)ccn1Cc1ccccc1 | % | 65.3

Go through the items and report each one's activity at 25 µM.
1. OC1O[C@H](CSc2ccc(F)cc2)[C@@H](O)[C@H]1O (stereo partly drawn)
2. CCc1nc(N)nc(N)c1C#CC(C)c1cc(OC)cc(-c2ccncc2)c1 (stereo not drawn)
3. Nc1nc(Nc2ccc3nc(-c4ccc(F)cc4)cc(N)c3c2)cc(-c2ccccc2)n1

Response line:
1. 97.5
2. 86.9
3. 82.5

###

Test system: M. mycetomatis genome strain MM55
PROTOCOL: CLSI M38-A2 based in vitro susceptibility screening (XTT or resazurin), growth at fixed concentration
Assay type: cell-based, Madurella mycetomatis
MEASUREMENT_CONTEXT: Madurella mycetomatis, 100 uM, replicate 1; read-out: Percentage survival at 100um, 100 uM A (first replicate column)
METRIC: activity at 100 µM (%)
One number for each entry, in %.

In the examples that follow, each entry is paired with its recorded activity at 100 µM.
MOLECULE | TARGET_UNDER_TEST | activity at 100 µM (%)
O=C(O)c1sccc1S(=O)(=O)n1ccc2cc(Br)ccc21 [MMV1580855] | M. mycetomatis genome strain MM55 | 128
Cc1ncc([N+](=O)[O-])n1CC(O)CN1CCOCC1 (stereo not drawn) [MMV1613562] | M. mycetomatis genome strain MM55 | 93.7
COc1ccc2sc3c(c2c1)NC(C)CNC3=O (stereo not drawn) [MMV1782115] | M. mycetomatis genome strain MM55 | -3.17
Cc1onc(-c2ccccc2)c1-c1ccc(S(N)(=O)=O)cc1 [MMV002260] | M. mycetomatis genome strain MM55 | 101
Cc1ccn2c(C(=O)NCc3ccccc3)c(C)nc2c1 [MMV1579847] | M. mycetomatis genome strain MM55 | 72.5

Quick batch: activity at 100 µM for everything below.
1. N=c1n(CCN2CCCCC2)c2ccccc2n1CC(O)COc1ccc(Cl)cc1Cl (stereo not drawn) [MMV394033]
2. O=C(Cn1cnc2ccccc2c1=O)Nc1ccccc1 [MMV1578891]

Response line:
1: -5.36; 2: 90.8

Provide reported activity at 100 µM for each item, in the same order as listed.
1. CC(C)c1cc2c(cc1S(=O)(=O)O)[C@@]1(C)CCC[C@@](C)(C(=O)O)[C@@H]1CC2 [MMV1633675]
2. CCOC(=O)/C=C/[C@H](C[C@@H]1CCNC1=O)NC(=O)[C@@H](CC(=O)[C@@H](NC(=O)c1cc(C)on1)C(C)C)Cc1ccc(F)cc1 [MMV1580491]

Response line:
91.1
99.7

Numbers sourced from paper PMC8815882.
